Answer each item with its documented solubility at 2 h.
Test: Solubility in FaSSIF
Settings: 23 °C, pH 6.5, fassif, thermodynamic from solid
Supply the numeric figure in µg/mL, leaving out any unit text.

Item: COC(=O)N[C@H](C(=O)N[C@@H](Cc1ccc(C#Cc2cnc(N3CC4CCC(C3)N4C3COC3)nc2)cc1)[C@H](CN(Cc1c(F)cc(-c2ccn(C(F)F)n2)cc1F)NC(=O)[C@@H](NC(=O)OC)C(C)(C)C(F)(F)F)OC(=O)CC(C)(C)c1c(CC(=O)NCP(=O)(O)O)cc(C)cc1OP(=O)(O)O)C(C)(C)C(F)(F)F | solubility at 2 h: 2730

Item: COC(=O)N[C@H](C(=O)N[C@@H](Cc1ccc(C#Cc2cnc(N3CC4CCC(C3)N4C3COC3)nc2)cc1)[C@H](CN(Cc1c(F)cc(-c2ccn(C(F)F)n2)cc1F)NC(=O)[C@@H](NC(=O)OC)C(C)(C)C(F)(F)F)OC(=O)CC(C)(C)c1c(CC(=O)N[C@]2(C(=O)O)CCOC2)cc(C)cc1OP(=O)(O)O)C(C)(C)C(F)(F)F | solubility at 2 h: 5370

Item: COC(=O)N[C@H](C(=O)N[C@@H](Cc1ccc(C#Cc2cnc(N3CC4CCC(C3)N4C3COC3)nc2)cc1)[C@H](CN(Cc1c(F)cc(-c2ccn(C(F)F)n2)cc1F)NC(=O)[C@@H](NC(=O)OC)C(C)(C)C(F)(F)F)OC(=O)CC(C)(C)c1c(CC(=O)NC(CCCC(=O)O)CC(=O)O)cc(C)cc1OP(=O)(O)O)C(C)(C)C(F)(F)F (stereo partly drawn) | solubility at 2 h: 4460
